Target: Neu5Ac(a2-3)Gal(b1-4)GlcNAc(b1-2)Man(a1-3)[Neu5Ac(a2-6)Gal(b1-4)GlcNAc(b1-2)Man(a1-6)]Man(b1-4)GlcNAc(b1-4)GlcNAc
Experiment: glycan array binding signal (z-score within array); higher = stronger binding
Settings: glycan notation: IUPAC condensed, linker removed
Only a selection was taken, and the strongest signals are over-represented in it overall.
observed.property: glycan array binding signal (z-score)
Lab note: record just the number, no unit beside it.

Prompt: Need glycan array binding signal (z-score) of Protein L(B1-B4) (Finegoldia magna), Q51912 (protein) KEETPETPETDSEEEVTIKANLIFANGSTQTAEFKGTFEKATSEAYAYADTLKKDNGEYTVDVADKGYTLNIKFAGKEKTPEEPKEEVTIKANLIYADGKTQTAEFKGTFEEATAEAYRYADALKKDNGEYTVDVADKGYTLNIKFAGKEKTPEEPKEEVTIKANLIYADGKTQTAEFKGTFEEATAEAYRYADLLAKENGKYTVDVADKGYTLNIKFAGKEKTPEEPKEEVTIKANLIYADGKTQTAEFKGTFAEATAEAYRYADLLAKENGKYTADLEDGGYTINIRFAG , thanks.
Completion: -1.02
